- System: CAKI-1 renal
- Assay Method Text: NCI-60 one-dose screen, 48 h (100 = growth as untreated, 0 = no growth, -100 = all killed)
- Measurement Parameters: 10 µM unless noted
- Protocol: Growth inhibition of the CAKI-1 human tumor cell line is measured as a screen for anti-cancer activity. Cells are grown in 96 well plates and exposed to the test compound for 48 hours. Compounds are tested at a single concentration, which is 10^-5 M for most compounds. The reported endpoint is percent growth (GI% or GIPRCNT), where numbers from 0 - 100% represent growth inhibition, and numbers from -100% - 0 represent cell death. For example, a value of 40 represents 60% growth inhibition. […]
Compounds without any hit were thinned out: in the full panel of roughly 83,000, 20% have a hit.
Property Name: growth (%)
Answer format: numeric, % implied, no suffix.

COc1cc2c(cc1O)c(=O)n(CCN(C)C)c1c3cc4c(cc3ncc21)OCO4; -10.2

// growth value for `CN1C/C=C\CCOc2cccc(c2)-c2ccnc(n2)Nc2cccc(c2)C1` : -87.9

// growth value for `CC(C)[C@@H]1CC[C@@H]2[C@@H]1[C@H](OC(=O)/C=C/c1ccccc1)[C@]1(C(C)C)C[C@@H](OC(=O)CO)[C@@]2(C)O1` : 65.5

---

- Tested on: MDA-MB-435 melanoma
- Assay Method Text: NCI-60 one-dose screen, 48 h
- Measurement Parameters: 10 µM unless noted
This is part of a sample that, as a whole, favours compounds with a hit. Of some 83,000 tested, about 20% had one in any assay. Activity calls are given as the source filed them. How the source made its calls: active means growth percent below 10; inactive means the rest.
// one of YES for active, NO for inactive, no free text

COc1cc(NCCN(CC(C)C)CC(C)C)c2ncc(C)cc2c1; YES

Qu. Please share the test call associated with `CCOc1cccc(/C=N/NC(=O)c2ccccc2Nc2ccnc(C(F)(F)F)c2)c1O` .
Ans. NO

Qu. Please share the test call associated with `COc1ccc(-c2cnc(-c3ccc(Cl)cc3)[nH]2)cc1OC` .
Ans. NO

Qu. Please share the test call associated with `COc1cnc2c(c1)C(=O)c1c-2n(CCCNC2=NCCS2)c(=O)c2cc(Cl)ccc12` .
Ans. YES

---

- Test system: T-47D breast
- Assay Method Text: NCI-60 one-dose screen, 48 h
- Measurement Parameters: 10 µM unless noted
The panel holds about 83,000 compounds, 20% with a hit somewhere; the sample as a whole holds those more often. Activity calls are given as the source filed them. The calls were made as follows: active = growth percent below 10; inactive = the rest.
// one of class 1 (active), class 0 (inactive), no free text

Known results for compounds:
CC(=O)Oc1ccccc1C(=O)N=C1[Se]CCN1C(=O)c1ccccc1OC(C)=O; class 1
Cc1ccccc1Nc1nc2nonc2nc1Nc1cccc(C)c1C; class 0
CNC(=O)c1ccc(Nc2ncc(C(F)(F)F)c(NCc3nccnc3N(C)S(C)(=O)=O)n2)cc1; class 1
COC(=O)C1CCc2sc3ncnc(Nc4cn[nH]c4C(=O)Nc4ccc(CN5CCN(C)CC5)cc4)c3c21 (stereo not given); class 0
Nc1ncnc2c1c(-c1cccc(OCc3ccccc3)c1)cn2C1CC(CN2CCC2)C1 (stereo not given); class 1

Qu. Please share the test call associated with `NC[C@@](O)(c1ccc(Cl)cc1)c1ccc(-c2cn[nH]c2)cc1` .
Ans. class 1

Qu. Please share the test call associated with `CCOC(=O)Sc1ncnc2nc[nH]c12` .
Ans. class 0

Qu. Please share the test call associated with `O=C(NO)c1ccc(Cn2c(=O)n(CCc3ccccc3)c(=O)c3ccccc32)cc1` .
Ans. class 0

Qu. Please share the test call associated with Nc1nc(N)c2cc(CNc3ccc(C(=O)NC(CC(=O)O)C(=O)O)cc3)ccc2n1 (stereo not given) .
Ans. class 0

Qu. Please share the test call associated with `CNC(=O)c1cc(COc2nnc(Nc3ccc(Cl)cc3)c3ccoc23)ccn1` .
Ans. class 0

---

- Tested on: A549/ATCC NSCLC
- Assay Method Text: NCI-60 one-dose screen, 48 h
- Measurement Parameters: 10 µM unless noted
Compounds without any hit were thinned out: in the full panel of roughly 83,000, 20% have a hit. Active and inactive are the calls of the source. Rule for the calls: active = growth percent below 10; inactive = the rest.
// one of active, inactive, no free text

Cn1cc(-c2ccc(F)c(C(F)(F)F)c2)nc1C1CCN(c2ncnc3[nH]ncc23)CC1; inactive
COc1ccc(Nc2ncccc2NC(=O)c2cn(Cc3cccc(Oc4ccccc4)c3)nn2)cc1; inactive
O=C(NCCO)Nc1ccc(-c2nc(N3CCOCC3)c3cccn3n2)cc1; active
COc1ncc(-c2ccc3nccc(-c4ccnnc4)c3c2)cc1NS(=O)(=O)c1ccc(F)cc1F; active
C[N+](C)(CCOC(c1ccccc1)c1ccccc1)CC(=O)OCc1ccccc1; inactive
Cn1c(=O)c(F)c(Nc2ccc(I)cc2F)c2c(=O)n(C[C@@H](O)CO)cnc21; inactive

Qu. Please share the test call associated with CC(CCCC(=O)O)c1ccoc1 (stereo not given) .
Ans. inactive

---

- System: MDA-MB-231 breast
- Assay Method Text: NCI-60 one-dose screen, 48 h (100 = growth as untreated, 0 = no growth, -100 = all killed)
- Measurement Parameters: 10 µM unless noted
Compounds without any hit were thinned out: in the full panel of roughly 83,000, 20% have a hit.
Give Condition met when the value for growth is at least 40%. Give Condition not met when it is less.

Known results for compounds:
CC1(O)CCC2CC3OC3(C)CCC3OC3(C)C(O)CC1C2(C)C (stereo not given); Condition met
FC(F)(F)c1ccc(CNc2ccc(Cc3c[nH]c4ncc(Cl)cc34)cn2)cn1; Condition not met
Cc1ccc(NC(=O)c2ccc(CN3CC[C@H](N(C)C)C3)c(C(F)(F)F)c2)cc1Nc1nccc(-c2cncnc2)n1; Condition not met

Here is the next item to consider.
Qu. Has `CNC(=O)CN1CCC(Oc2cc3c(Nc4cccc(Cl)c4F)ncnc3cc2OC)CC1` a recorded growth greater than or equal to 40%?
Ans. Condition met

---

- Test system: UO-31 renal
- Assay Method Text: NCI-60 one-dose screen, 48 h (100 = growth as untreated, 0 = no growth, -100 = all killed)
- Measurement Parameters: 10 µM unless noted
Compounds without any hit were thinned out: in the full panel of roughly 83,000, 20% have a hit.
Listing of recorded growth by entry.
Answer format: numeric, % implied, no suffix.

CCC1(/C=N/NC(N)=S)NC(=O)NC1=O (stereo not given); 87.5
COC(=O)CNC(=O)[C@@H](OC)[C@@H]1Cc2cc3cc(OC4CC(OC5CC(O)C(O)C(C)O5)C(O)C(C)O4)c(C)c(O)c3c(O)c2C(=O)[C@H]1OC1CC(OC2CC(OC3CC(C)(O)C(O)C(C)O3)C(O)C(C)O2)C(O)C(C)O1 (stereo not given in full); 10.9

// growth value for CCCCCCCC12Cc3ccccc3C1=Nc1c(c3ccccc3n1C)C2=O (stereo not given) : 57.5

// growth value for `CN1CC[C@@H](c2c(O)cc(O)c3c(=O)cc(-c4ccccc4Cl)oc23)[C@@H]1CO` : -5.4

// growth value for `Cc1ccc(C(=O)Nc2ccc(CN3CCN(C)CC3)c(C(F)(F)F)c2)cc1C#Cc1cnc2cccnn12` : -93.6

---

- Test system: SF-295 CNS
- Assay Method Text: NCI-60 one-dose screen, 48 h (100 = growth as untreated, 0 = no growth, -100 = all killed)
- Measurement Parameters: 10 µM unless noted
This is part of a sample that, as a whole, favours compounds with a hit. Of some 83,000 tested, about 20% had one in any assay.
Property Name: growth (%)
Answer format: numeric, % implied, no suffix.

Sample answers from the record:
ClCc1ccc(-c2ccc(Cn3cnc4c(Cl)nc(Cl)nc43)cc2)cc1; -74.2
COc1cc2c(Oc3ccc(NC(=O)C4(C(=O)Nc5ccc(F)cc5)CC4)cc3F)ccnc2cc1OCCCN1CCOCC1; -82.9
Cc1ccc2oc(=O)cc(-c3cc(-c4cc5ccccc5oc4=O)nc(N)c3C#N)c2c1; 63.4
O=C(Nc1cccc(Cl)c1)Nc1ncc(CCNc2ncnc3ccsc23)s1; 20
Nc1nc(N)c2cc(CNc3ccc(C(=O)NC(CC(=O)O)C(=O)O)cc3)ccc2n1 (stereo unspecified); 28.5

API: the following record is the query input.
// growth value for `NN1C(=O)CSC1=S` : 105

---

- Test system: SF-268 CNS
- Assay Method Text: NCI-60 one-dose screen, 48 h
- Measurement Parameters: 10 µM unless noted
The panel holds about 83,000 compounds, 20% with a hit somewhere; the sample as a whole holds those more often. Active and inactive are the calls of the source. How the source made its calls: active means growth percent below 10; inactive means the rest.
// one of t (active), f (inactive), no free text

Cc1ccc2oc(=O)cc(-c3cc(-c4cc5ccccc5oc4=O)nc(N)c3C#N)c2c1; f
C/C(=C(/c1ccc(Cl)cc1)c1ccc(OCCN2CCCCC2)cc1)c1ccccc1; f
c1cc(OCCN2CCCCC2)cc(-c2n[nH]c3ccc(-c4ncn[nH]4)cc23)c1; f
Cc1sc2c(c1C)c(=O)nc1c(-c3nc4ccccc4s3)n[nH]n12; f
CCN(CC)CCN1C(=O)c2cccc3c(-c4ccc5c(c4)ncn5C4CCCCC4)ccc(c23)C1=O; f

Qu. Please share the test call associated with `CNC(=O)c1cccc2cc(Oc3ccnc4cc(OCC5(N)CC5)c(OC)cc34)ccc12` .
Ans. f

Qu. Please share the test call associated with COc1cccc2cc(-c3nc(C4CCC(C(=O)O)CC4)n4ncnc(N)c34)[nH]c12 (configuration not stated) .
Ans. f

Qu. Please share the test call associated with `N#Cc1c(-c2ccc(Cl)cc2)csc1NC(=O)Nc1cccc(C(F)(F)F)c1` .
Ans. f

Qu. Please share the test call associated with `CCOC(=O)c1sc(NC(=O)COc2ccc(/C=C3\Cc4ccc(Cl)cc4C3=O)cc2)nc1C` .
Ans. f

Qu. Please share the test call associated with `O=C(NO)c1ccc(Cn2c(=O)n(-c3ccccc3F)c(=O)c3ccccc32)cc1` .
Ans. t
